Measured values drawn from patent US10174035B2 for this set.

- Assay Procedure: Solubility in Japanese Pharmacopeia First Fluid (JP1) and Second Fluid (JP2)
- Format: physicochemical
- Condition Info: pH 1.2, simulated gastric fluid, thermodynamic from solid; Japanese Pharmacopeia First Fluid (JP1), room temperature; read-out: Solubility JP1
Metric: solubility at 30 min

Task: Give the reported solubility at 30 min for this compound. Cc1nn(C)cc1-c1nc2[nH]c(C(=O)N3CCC(N(C)C)CC3)nc2c(N2CCOCC2)c1F [compound 97]
Output: > 936 µg/mL

Task: Give the reported solubility at 30 min for this compound. Cc1nn(C)cc1-c1nc2[nH]c(C(=O)N3CCC(N4CCOCC4)CC3)nc2c(N2CCOCC2)c1F [compound 96]
Output: > 1020 µg/mL

Task: Give the reported solubility at 30 min for this compound. Cn1cc(-c2nc(N3CCOCC3)c3nc(C(=O)N4CCC(N5CCOCC5)CC4)[nH]c3n2)cn1 [Compound No. 58]
Output: > 1200 µg/mL

Task: Give the reported solubility at 30 min for this compound. O=C(c1nc2c(N3CCOCC3)nc(-c3cn[nH]c3)nc2[nH]1)N1CCC(N2CCOCC2)CC1 [compound 42]
Output: > 1510 µg/mL
